# system: the molecule itself
# test-protocol: cross-linking; Ca2+-loaded proteins: 0.02% glutaric aldehyde, 16 h, 20 °C, protein 1 mg/mL, 20 mM Tricine-KOH pH 7.4, 50 mM KCl, 1 mM DTT, 1 mM CaCl2; SDS-PAGE, Coomassie, densitometry; self-association
outcome-measure: Trimer 70–100 kDa, % (%)

protein="human recoverin mutant Q46A (natural protein, UniProt P35243 1-200, looked up, myristoylated (fraction of non-myristoylated forms did not exceed 16%), recoverin, human, UniProt P35243, N-terminal 'gray' cluster mutant; Parent construct as m1; source: E. coli, expressed and purified similarly to the rWT protein (phenyl-Sepharose, Toyopearl SuperQ-650M)) MGNSKSGALSKEILEELQLNTKFSEEELCSWYQSFLKDCPTGRITAQQFQSIYAKFFPDTDPKAYAQHVFRSFDSNLDGTLDFKEYVIALHMTTAGKTNQKLEWAFSLYDVDGNGTISKNEVLEIVMAIFKMITPEDVKLLPDDENTPEKRAEKIWKYFGKNDDDKLTEKEFIEGTLANKEILRLIQFEPQKVKEKMKNA" outcome_measure="Trimer 70–100 kDa, %" unit_name=% result=22.3
protein="human recoverin mutant K119A (natural protein, UniProt P35243 1-200, looked up, myristoylated (fraction of non-myristoylated forms did not exceed 16%), recoverin, human, UniProt P35243, C-terminal 'gray' cluster mutant; Parent construct as m1; source: E. coli, expressed and purified similarly to the rWT protein (phenyl-Sepharose, Toyopearl SuperQ-650M)) MGNSKSGALSKEILEELQLNTKFSEEELCSWYQSFLKDCPTGRITQQQFQSIYAKFFPDTDPKAYAQHVFRSFDSNLDGTLDFKEYVIALHMTTAGKTNQKLEWAFSLYDVDGNGTISANEVLEIVMAIFKMITPEDVKLLPDDENTPEKRAEKIWKYFGKNDDDKLTEKEFIEGTLANKEILRLIQFEPQKVKEKMKNA" outcome_measure="Trimer 70–100 kDa, %" unit_name=% result=24.7
protein="human recoverin mutant F106A (natural protein, UniProt P35243 1-200, looked up, myristoylated (fraction of non-myristoylated forms did not exceed 16%), recoverin, human, UniProt P35243, C-terminal 'black' cluster mutant; Parent construct as m1; source: E. coli, expressed and purified similarly to the rWT protein (phenyl-Sepharose, Toyopearl SuperQ-650M)) MGNSKSGALSKEILEELQLNTKFSEEELCSWYQSFLKDCPTGRITQQQFQSIYAKFFPDTDPKAYAQHVFRSFDSNLDGTLDFKEYVIALHMTTAGKTNQKLEWAASLYDVDGNGTISKNEVLEIVMAIFKMITPEDVKLLPDDENTPEKRAEKIWKYFGKNDDDKLTEKEFIEGTLANKEILRLIQFEPQKVKEKMKNA" outcome_measure="Trimer 70–100 kDa, %" unit_name=% result=30
protein="human recoverin mutant Y86A (natural protein, UniProt P35243 1-200, looked up, myristoylated (fraction of non-myristoylated forms did not exceed 16%), recoverin, human, UniProt P35243, N-terminal 'black' cluster mutant; Parent construct as m1; source: E. coli, expressed and purified similarly to the rWT protein (phenyl-Sepharose, Toyopearl SuperQ-650M)) MGNSKSGALSKEILEELQLNTKFSEEELCSWYQSFLKDCPTGRITQQQFQSIYAKFFPDTDPKAYAQHVFRSFDSNLDGTLDFKEAVIALHMTTAGKTNQKLEWAFSLYDVDGNGTISKNEVLEIVMAIFKMITPEDVKLLPDDENTPEKRAEKIWKYFGKNDDDKLTEKEFIEGTLANKEILRLIQFEPQKVKEKMKNA" outcome_measure="Trimer 70–100 kDa, %" unit_name=% result=21.5
protein="human recoverin mutant F172A (natural protein, UniProt P35243 1-200, looked up, myristoylated (fraction of non-myristoylated forms did not exceed 16%), recoverin, human, UniProt P35243, C-terminal 'black' cluster mutant; Parent construct as m1; source: E. coli, expressed and purified similarly to the rWT protein (phenyl-Sepharose, Toyopearl SuperQ-650M)) MGNSKSGALSKEILEELQLNTKFSEEELCSWYQSFLKDCPTGRITQQQFQSIYAKFFPDTDPKAYAQHVFRSFDSNLDGTLDFKEYVIALHMTTAGKTNQKLEWAFSLYDVDGNGTISKNEVLEIVMAIFKMITPEDVKLLPDDENTPEKRAEKIWKYFGKNDDDKLTEKEAIEGTLANKEILRLIQFEPQKVKEKMKNA" outcome_measure="Trimer 70–100 kDa, %" unit_name=% result=28.8
